System: SKBR-3
TEST SUMMARY: MTT assay, SKBR-3
Assay type: cell-based, human
RUN PARAMETERS: SK-BR-3; MTT assay; SKBR-3 human breast adenocarcinoma; value (SD)
pIC50: −log10 of the molar value.
// pIC50 lookup, one value per entry

MOLECULE	pIC50
CC(=O)OC1CCC2(C)C(CCC3(C)C2CC=C2C4CC(C)(C)CCC4(C(=O)OCC=CCOC(=O)C45CCC(C)(C)CC4C4=CCC6C7(C)CCC(OC(C)=O)C(C)(C)C7CCC6(C)C4(C)CC5)CCC23C)C1(C)C (stereo not shown)	5.51
CC(=O)OC1CCC2(C)C(CCC3(C)C2CC=C2C4CC(C)(C)CCC4(C(=O)OCCCCCCCCOC(=O)C45CCC(C)(C)CC4C4=CCC6C7(C)CCC(OC(C)=O)C(C)(C)C7CCC6(C)C4(C)CC5)CCC23C)C1(C)C (stereo not shown)	5.56
CC(=O)OC1CCC2(C)C(CCC3(C)C2CC=C2C4CC(C)(C)CCC4(C(=O)OCCCCOC(=O)C45CCC(C)(C)CC4C4=CCC6C7(C)CCC(OC(C)=O)C(C)(C)C7CCC6(C)C4(C)CC5)CCC23C)C1(C)C (stereo not shown)	5.52
CC(=O)OC1CCC2(C)C(CCC3(C)C2CC=C2C4CC(C)(C)CCC4(C(=O)OCCCCCCCCCOC(=O)C45CCC(C)(C)CC4C4=CCC6C7(C)CCC(OC(C)=O)C(C)(C)C7CCC6(C)C4(C)CC5)CCC23C)C1(C)C (stereo not shown)	5.58

###

SKOV-3 SI listing for selected compounds.
Tested on: SKOV-3
TEST SUMMARY: MTT assay, SKOV-3
Assay type: cell-based, human
RUN PARAMETERS: Selectivity Index = IC50 HDF / IC50 SKOV-3
OBSERVATION TYPE: SKOV-3 SI

COMPOUND	TARGET DESC	MEASURED VALUE
CC1(C)CC[C@]2(C(=O)O)CC[C@]3(C)C(=CC[C@@H]4[C@@]5(C)CC[C@H](O)C(C)(C)[C@@H]5CC[C@]43C)[C@@H]2C1	SKOV-3	1.32
CC(=O)OC1CCC2(C)C(CCC3(C)C2CC=C2C4CC(C)(C)CCC4(C(=O)OCCCCCCCCCOC(=O)C45CCC(C)(C)CC4C4=CCC6C7(C)CCC(OC(C)=O)C(C)(C)C7CCC6(C)C4(C)CC5)CCC23C)C1(C)C (stereo not drawn)	SKOV-3	0.73
CC(=O)OC1CCC2(C)C(CCC3(C)C2CC=C2C4CC(C)(C)CCC4(C(=O)OCCCCCCOC(=O)C45CCC(C)(C)CC4C4=CCC6C7(C)CCC(OC(C)=O)C(C)(C)C7CCC6(C)C4(C)CC5)CCC23C)C1(C)C (stereo not drawn)	SKOV-3	1.45

###

Test system: SKBR-3
TEST SUMMARY: MTT assay, SKBR-3
Type: cell-based, human
RUN PARAMETERS: Selectivity Index = IC50 HDF / IC50 SKBR-3
In this section we review reported SKBR-3 SI values for a set of compounds.

COMPOUND	SKBR-3 SI
CC(=O)OC1CCC2(C)C(CCC3(C)C2CC=C2C4CC(C)(C)CCC4(C(=O)OCCCOC(=O)C45CCC(C)(C)CC4C4=CCC6C7(C)CCC(OC(C)=O)C(C)(C)C7CCC6(C)C4(C)CC5)CCC23C)C1(C)C (stereo not shown)	0.80
CC(=O)OC1CCC2(C)C(CCC3(C)C2CC=C2C4CC(C)(C)CCC4(C(=O)OCCCCCCCCCOC(=O)C45CCC(C)(C)CC4C4=CCC6C7(C)CCC(OC(C)=O)C(C)(C)C7CCC6(C)C4(C)CC5)CCC23C)C1(C)C (stereo not shown)	0.74
CC(=O)OC1CCC2(C)C(CCC3(C)C2CC=C2C4CC(C)(C)CCC4(C(=O)OCCCCOC(=O)C45CCC(C)(C)CC4C4=CCC6C7(C)CCC(OC(C)=O)C(C)(C)C7CCC6(C)C4(C)CC5)CCC23C)C1(C)C (stereo not shown)	1.58
CC(=O)OC1CCC2(C)C(CCC3(C)C2CC=C2C4CC(C)(C)CCC4(C(=O)OCCCCCCCCCCOC(=O)C45CCC(C)(C)CC4C4=CCC6C7(C)CCC(OC(C)=O)C(C)(C)C7CCC6(C)C4(C)CC5)CCC23C)C1(C)C (stereo not shown)	0.61

###

Test system: PC-3
TEST SUMMARY: MTT assay, PC-3
Type: cell-based, human
RUN PARAMETERS: Selectivity Index = IC50 HDF / IC50 of PC-3
Entries annotated with measured B SI

MOLECULE	B SI
CC(=O)OC1CCC2(C)C(CCC3(C)C2CC=C2C4CC(C)(C)CCC4(C(=O)OCCCCOC(=O)C45CCC(C)(C)CC4C4=CCC6C7(C)CCC(OC(C)=O)C(C)(C)C7CCC6(C)C4(C)CC5)CCC23C)C1(C)C (centres unmarked)	1.33
CC(=O)OC1CCC2(C)C(CCC3(C)C2CC=C2C4CC(C)(C)CCC4(C(=O)OCC=CCOC(=O)C45CCC(C)(C)CC4C4=CCC6C7(C)CCC(OC(C)=O)C(C)(C)C7CCC6(C)C4(C)CC5)CCC23C)C1(C)C (centres unmarked) [Compound 3e]	1.99

###

System: SKBR-3
TEST SUMMARY: MTT assay, SKBR-3
Assay type: cell-based, human
RUN PARAMETERS: SK-BR-3; MTT assay; SKBR-3 human breast adenocarcinoma; value (SD)
// boundary case: IC50 equal to 5 µM maps to criterion not met; strictly smaller maps to criterion met

COMPOUND	CLASS NAME
CC(=O)OC1CCC2(C)C(CCC3(C)C2CC=C2C4CC(C)(C)CCC4(C(=O)OCCCCCOC(=O)C45CCC(C)(C)CC4C4=CCC6C7(C)CCC(OC(C)=O)C(C)(C)C7CCC6(C)C4(C)CC5)CCC23C)C1(C)C (stereo not drawn) [Compound 3g]	criterion met
CC(=O)OC1CCC2(C)C(CCC3(C)C2CC=C2C4CC(C)(C)CCC4(C(=O)OCCCCCCCOC(=O)C45CCC(C)(C)CC4C4=CCC6C7(C)CCC(OC(C)=O)C(C)(C)C7CCC6(C)C4(C)CC5)CCC23C)C1(C)C (stereo not drawn) [Compound 3i]	criterion met
CC(=O)OC1CCC2(C)C(CCC3(C)C2CC=C2C4CC(C)(C)CCC4(C(=O)OCCCCCCCCCCCOC(=O)C45CCC(C)(C)CC4C4=CCC6C7(C)CCC(OC(C)=O)C(C)(C)C7CCC6(C)C4(C)CC5)CCC23C)C1(C)C (stereo not drawn) [Compound 3m]	criterion met
CC(=O)OC1CCC2(C)C(CCC3(C)C2CC=C2C4CC(C)(C)CCC4(C(=O)OCCCCCCCCCCOC(=O)C45CCC(C)(C)CC4C4=CCC6C7(C)CCC(OC(C)=O)C(C)(C)C7CCC6(C)C4(C)CC5)CCC23C)C1(C)C (stereo not drawn) [Compound 3l]	criterion not met
CC(=O)OC1CCC2(C)C(CCC3(C)C2CC=C2C4CC(C)(C)CCC4(C(=O)OCCOC(=O)C45CCC(C)(C)CC4C4=CCC6C7(C)CCC(OC(C)=O)C(C)(C)C7CCC6(C)C4(C)CC5)CCC23C)C1(C)C (stereo not drawn) [Compound 3b]	criterion met
CC(=O)OC1CCC2(C)C(CCC3(C)C2CC=C2C4CC(C)(C)CCC4(C(=O)OCOC(=O)C45CCC(C)(C)CC4C4=CCC6C7(C)CCC(OC(C)=O)C(C)(C)C7CCC6(C)C4(C)CC5)CCC23C)C1(C)C (stereo not drawn) [Compound 3a]	criterion met
CC(=O)OC1CCC2(C)C(CCC3(C)C2CC=C2C4CC(C)(C)CCC4(C(=O)OCCCCCCOC(=O)C45CCC(C)(C)CC4C4=CCC6C7(C)CCC(OC(C)=O)C(C)(C)C7CCC6(C)C4(C)CC5)CCC23C)C1(C)C (stereo not drawn) [Compound 3h]	criterion not met
CC(=O)OC1CCC2(C)C(CCC3(C)C2CC=C2C4CC(C)(C)CCC4(C(=O)OCCCCCCCCCCCCOC(=O)C45CCC(C)(C)CC4C4=CCC6C7(C)CCC(OC(C)=O)C(C)(C)C7CCC6(C)C4(C)CC5)CCC23C)C1(C)C (stereo not drawn) [Compound 3n]	criterion not met
CC(=O)OC1CCC2(C)C(CCC3(C)C2CC=C2C4CC(C)(C)CCC4(C(=O)OCCCOC(=O)C45CCC(C)(C)CC4C4=CCC6C7(C)CCC(OC(C)=O)C(C)(C)C7CCC6(C)C4(C)CC5)CCC23C)C1(C)C (stereo not drawn) [Compound 3c]	criterion met

###

In this section we review reported IC50 values for a set of compounds.
Test system: HDF
TEST SUMMARY: MTT assay, HDF normal cell line
Type: cell-based
RUN PARAMETERS: Homo sapiens, value (SD)
Procedure: The cytotoxic activity of oleanolic acid (mother compound, 1, Figure 2) and its 14 derivatives (3a–3n, Figure 2) was tested in vitro using the standard MTT method based on viability assay, e.g., [44] against carcinoma cell lines: SKBR-3, SKOV-3, PC-3, U-87, and one normal cell line: HDF. Human cancer cells: SKBR-3 and SKOV-3 were cultured in McCoy’s Modified Medium; PC-3 was cultured in an F-12K medium; U-87 was cultured in EMEM medium; HDF was cultured in Fibroblast Basal Medium. […]

COMPOUND	TARGET DESC	IC50
CC1(C)CC[C@]2(C(=O)O)CC[C@]3(C)C(=CC[C@@H]4[C@@]5(C)CC[C@H](O)C(C)(C)[C@@H]5CC[C@]43C)[C@@H]2C1	HDF	24.9 µM
CC(=O)OC1CCC2(C)C(CCC3(C)C2CC=C2C4CC(C)(C)CCC4(C(=O)OCC=CCOC(=O)C45CCC(C)(C)CC4C4=CCC6C7(C)CCC(OC(C)=O)C(C)(C)C7CCC6(C)C4(C)CC5)CCC23C)C1(C)C (centres unmarked)	HDF	6.66 µM
CC(=O)OC1CCC2(C)C(CCC3(C)C2CC=C2C4CC(C)(C)CCC4(C(=O)OCCCCCCCCCCCCOC(=O)C45CCC(C)(C)CC4C4=CCC6C7(C)CCC(OC(C)=O)C(C)(C)C7CCC6(C)C4(C)CC5)CCC23C)C1(C)C (centres unmarked)	HDF	14.7 µM
CC(=O)OC1CCC2(C)C(CCC3(C)C2CC=C2C4CC(C)(C)CCC4(C(=O)OCCCCCCCCCCCOC(=O)C45CCC(C)(C)CC4C4=CCC6C7(C)CCC(OC(C)=O)C(C)(C)C7CCC6(C)C4(C)CC5)CCC23C)C1(C)C (centres unmarked)	HDF	4.62 µM
CC(=O)OC1CCC2(C)C(CCC3(C)C2CC=C2C4CC(C)(C)CCC4(C(=O)OCCCCCCCOC(=O)C45CCC(C)(C)CC4C4=CCC6C7(C)CCC(OC(C)=O)C(C)(C)C7CCC6(C)C4(C)CC5)CCC23C)C1(C)C (centres unmarked)	HDF	1.85 µM
CC(=O)OC1CCC2(C)C(CCC3(C)C2CC=C2C4CC(C)(C)CCC4(C(=O)OCCCCCCCCCOC(=O)C45CCC(C)(C)CC4C4=CCC6C7(C)CCC(OC(C)=O)C(C)(C)C7CCC6(C)C4(C)CC5)CCC23C)C1(C)C (centres unmarked)	HDF	1.94 µM
CC(=O)OC1CCC2(C)C(CCC3(C)C2CC=C2C4CC(C)(C)CCC4(C(=O)OCCOC(=O)C45CCC(C)(C)CC4C4=CCC6C7(C)CCC(OC(C)=O)C(C)(C)C7CCC6(C)C4(C)CC5)CCC23C)C1(C)C (centres unmarked)	HDF	7.05 µM
CC(=O)OC1CCC2(C)C(CCC3(C)C2CC=C2C4CC(C)(C)CCC4(C(=O)OCCCCCCOC(=O)C45CCC(C)(C)CC4C4=CCC6C7(C)CCC(OC(C)=O)C(C)(C)C7CCC6(C)C4(C)CC5)CCC23C)C1(C)C (centres unmarked)	HDF	6.85 µM
CC(=O)OC1CCC2(C)C(CCC3(C)C2CC=C2C4CC(C)(C)CCC4(C(=O)OCCCCOC(=O)C45CCC(C)(C)CC4C4=CCC6C7(C)CCC(OC(C)=O)C(C)(C)C7CCC6(C)C4(C)CC5)CCC23C)C1(C)C (centres unmarked)	HDF	4.78 µM
CC(=O)OC1CCC2(C)C(CCC3(C)C2CC=C2C4CC(C)(C)CCC4(C(=O)OCOC(=O)C45CCC(C)(C)CC4C4=CCC6C7(C)CCC(OC(C)=O)C(C)(C)C7CCC6(C)C4(C)CC5)CCC23C)C1(C)C (centres unmarked)	HDF	6.63 µM
CC(=O)OC1CCC2(C)C(CCC3(C)C2CC=C2C4CC(C)(C)CCC4(C(=O)OCCCOC(=O)C45CCC(C)(C)CC4C4=CCC6C7(C)CCC(OC(C)=O)C(C)(C)C7CCC6(C)C4(C)CC5)CCC23C)C1(C)C (centres unmarked)	HDF	3.07 µM
CC(=O)OC1CCC2(C)C(CCC3(C)C2CC=C2C4CC(C)(C)CCC4(C(=O)OCCCCCCCCCCOC(=O)C45CCC(C)(C)CC4C4=CCC6C7(C)CCC(OC(C)=O)C(C)(C)C7CCC6(C)C4(C)CC5)CCC23C)C1(C)C (centres unmarked)	HDF	3.62 µM
CC(=O)OC1CCC2(C)C(CCC3(C)C2CC=C2C4CC(C)(C)CCC4(C(=O)OCCCCCCCCOC(=O)C45CCC(C)(C)CC4C4=CCC6C7(C)CCC(OC(C)=O)C(C)(C)C7CCC6(C)C4(C)CC5)CCC23C)C1(C)C (centres unmarked)	HDF	6.4 µM
CC(=O)OC1CCC2(C)C(CCC3(C)C2CC=C2C4CC(C)(C)CCC4(C(=O)OCCCCCOC(=O)C45CCC(C)(C)CC4C4=CCC6C7(C)CCC(OC(C)=O)C(C)(C)C7CCC6(C)C4(C)CC5)CCC23C)C1(C)C (centres unmarked)	HDF	5.66 µM
